- System: MS2 coat protein
- PROCEDURE TEXT: apparent KD of MS2 coat protein; higher = weaker reporter binding
- CONDITIONS USED: Eterna round: R107; input ligand: arginine 13.2 mM
PROPERTY MEASURED: apparent KD of MS2 coat protein (nM)
Express it in nM; write the number only.

[[record]]
residues = "GUAUGGAAACAUACUAUGGUAUCGUGAGAUACCAGUACAGAAAUGUACCCUUGGCAGCUCGCGCAUACAUGAGGAUCACCCAUGU [Ex Theophylline A 10]"
units = "nM"
recorded_result = 16.4

[[record]]
residues = "AGAUUCGACACGGCCGCCACUUGUGGUGGAUUAUCCUGUGUCGAACAUGAGGAUCACCCAUGUACAAGGACCGGGUGUUGAGUCU [XTryp B #20]"
units = "nM"
recorded_result = 60.2

[[record]]
residues = "AAAUAAAUACAUGAGGAUCACCCAUGUGAAGGAGCGCCCGUUAGGGCAGGUAGGUCGCACAUGAACUCCAAGCGAAAGAAAUAAU [ArgEX 16 #OpenEnded]"
units = "nM"
recorded_result = 23.6

[[record]]
residues = "UUUAAAUAGACGGCCGCCACUGGAAUUAAUACAUGAGGAUCACCCAUGUAGAGAGAAUAAUAAUACAGGACCGGGUCUUCAUGAA [SS Tryp B Tesla 1]"
units = "nM"
recorded_result = 27.2

[[record]]
residues = "AAUCGGACUCGUACAGCAUGUUGAGCGGAAGGAGCGGCGAAAGAGCCAGGUAGGUCGCCGCCGACAUGAGGAUCACCCAUGUACG [Orenti]"
units = "nM"
recorded_result = 27.3

[[record]]
residues = "AGACAUGAGGAUCACCCAUGUAGUAUGGAUACCAGAUGUAGAUUAGUCCCUUGGCAGCUGUGCUGAAGUGAUGCAUUGCUCCUAG [#15 Exclusion-TheophyllineA]"
units = "nM"
recorded_result = 21.9


As a next step, examine the sequence that follows.
The sequence identified as AUCUCAUAGAGUGAUACCAGACUACAUGAGGAUCACCCAUGUUACAUUUAAAUAUCAUUUGUCCCUUGGCAGCACAUUAAGUACA [JR_Nu_ExcTheophyB_Sub019] registered its apparent KD of MS2 coat protein at 25.6

----------
- Test system: MS2 coat protein
- PROCEDURE TEXT: apparent KD of MS2 coat protein; designed switch direction (-1 OFF switch, 1 ON switch): -1; higher = weaker reporter binding
- CONDITIONS USED: input ligand: none
PROPERTY MEASURED: apparent KD of MS2 coat protein
Kindly write the number and append the unit.

[[record]]
residues = "GUAAUGCUAGGAUAUCGACAAAUUUACAUGAGGAUCACCCAUGUGAACCCUGUGUGGUAACGAGAAGGAGUCAGCU [Eternabot (L2) Solution 54] (Eterna round: R97, puzzle: Exclusion 5)"
tested_system = "MS2 coat protein"
recorded_result = "0.0535 µM"

[[record]]
residues = "GGCCUUCCGCAAGCUUUUUACAUGAGGAUCACCCAUGUGGUUUUUAGUCUUAUGUUCGGGCCCGUGUGGGCUCGGGC [-25.5, -46.5, A 13%] (Eterna round: R97, puzzle: Sensor, turn-off variant 1)"
tested_system = "MS2 coat protein"
recorded_result = "0.029 µM"

[[record]]
residues = "CCGAGGUGGCGGUCCUAUGACAUGAGGAUCACCCAUGUACCUCGCCACAAGCUCUUUGCUCAUCUUAUAGUUCUCGG [Onlaor] (Eterna round: R96, puzzle: Sensor v3, turn-off variant 1)"
tested_system = "MS2 coat protein"
recorded_result = "0.0245 µM"


Value of measured apparent KD of MS2 coat protein for the entry AAAUAAUGAGGAUAUACAGUGUAAAACAUGAGGAUCACCCAUGUUCUUCAAUUAGUAUUUGUAGAAGGCAUAGGUA [JR_Ex5_Sub094] (Eterna round: R97, puzzle: Exclusion 5) : 0.0607 µM

For this sequence ( GGCAUGCAAGGAUAUACUUACGGUGAUGUUCGAAGCUUUCUACUUGAGGAUCACCCAAGUAGAAGGUGCAUGCC [jl-ex2.4.75 ViennaUCT mod] (Eterna round: R97, puzzle: Exclusion 2) ), measured apparent KD of MS2 coat protein is 0.0211 µM

The measured apparent KD of MS2 coat protein associated with GCUUGAGCAGGAUAUACAUGAGGAUCACCCAUGUGCUUGAGCUUGAUCGAGUUCGAGUGUAGAAGGGUUCGAGU [-26.9, -23.9 kcal, 24% A, 1 bis, 1 bis] (Eterna round: R97, puzzle: Exclusion 3) reads 0.0197 µM

Note to self: apparent KD of MS2 coat protein recorded for AUUAGCGUAGGAUAUUGAUACAUGUACAUGAGGAUCACCCAUGUGAGGUGAGUCUUGGAUUAAGAAGGGCGAAGAA [EX5 #37] (Eterna round: R97, puzzle: Exclusion 5) was 1.27 µM
